System: Hepatocellular carcinoma (HePG2)
Experiment: Antitumor screening using MTT assay
Type: cell-based, human
Settings: Homo sapiens, Conc. 3.125 µM, read-out: Average of Relative viability of cells (%)
value kind: viability at 3.125 µM (%)
Just the number in %, nothing appended.

structure_string=C/C(=N\NC(=S)Nc1ccc(Cl)cc1)c1cc2ccccc2o1 value_kind="viability at 3.125 µM" value_observed=81.4

Request: State its viability at 3.125 µM for this compound: C\C(=N/N=C/C=C/c1ccccc1)c1cc2ccccc2o1
Response: 100

Request: State its viability at 3.125 µM for this compound: C/C(=N\NC(=O)Nc1ccc(Cl)cc1)c1cc2ccccc2o1
Response: 100

Request: State its viability at 3.125 µM for this compound: O=C(/C=C/N1CCCCC1)c1cc2ccccc2o1
Response: 76.8

Request: State its viability at 3.125 µM for this compound: COc1ccccc1/C=N/N=C(\C)c1cc2ccccc2o1
Response: 100

Request: State its viability at 3.125 µM for this compound: COc1ccc(/C=N/N=C(\C)c2cc3ccccc3o2)cc1OC
Response: 94.4

----------
Experiment: In vitro cytotoxicity against human normal cell line (MTT)
Assay type: cell-based
Conditions: human, WI38 human lung fibroblast cells (normal cell line); WI38; Conc. 1.56 µM; read-out: Average of Relative viability of cells (%)
Listing: viability at 1.56 µM of selected compounds
Just the number in %, nothing appended.

Past entries and their recorded results:
structure_string=C/C(=N\NC(=O)Nc1ccc(Cl)cc1)c1cc2ccccc2o1 value_observed=100
structure_string=O=C(/C=C/N1CCCCC1)c1cc2ccccc2o1 value_observed=100

Request: State its viability at 1.56 µM for this compound: C\C(=N/N=C/C=C/c1ccccc1)c1cc2ccccc2o1
Response: 100

----------
Listing: viability at 6.25 µM of selected compounds
Tested on: mammary gland breast cancer (MCF-7)
Experiment: Antitumor screening using MTT assay
Details: Homo sapiens, MCF7, read-out: Average of Relative viability of cells (%)
Just the number in %, nothing appended.

compound="COc1ccccc1/C=N/N=C(\\C)c1cc2ccccc2o1 [Compound 10]" value_observed=94.7
compound="COc1ccc(/C=N/N=C(\\C)c2cc3ccccc3o2)cc1OC [Compound 9]" value_observed=79.5
compound="O=C(/C=C/N1CCCCC1)c1cc2ccccc2o1 [Compound 5]" value_observed=72.1
compound="C/C(=N\\NC(=S)Nc1ccc(Cl)cc1)c1cc2ccccc2o1 [Compound 8]" value_observed=65.7
compound="C/C(=N\\NC(=O)Nc1ccc(Cl)cc1)c1cc2ccccc2o1 [Compound 7]" value_observed=97.6

Next up:
Request: Provide measured viability at 6.25 µM on mammary gland breast cancer (MCF-7) for C\C(=N/N=C/C=C/c1ccccc1)c1cc2ccccc2o1 [Compound 12] please.
Response: 94.7

----------
Assay: In vitro cytotoxicity against human normal cell line (MTT)
Assay type: cell-based
Details: human, WI38 normal lung fibroblast cells; WI38; Conc. 100 µM; read-out: Average of Relative viability of cells (%)
Listing: viability at 100 µM of selected compounds
Just the number in %, nothing appended.

Request: State its viability at 100 µM for this compound: COc1ccccc1/C=N/N=C(\C)c1cc2ccccc2o1 [Compound 10]
Response: 43.3

Request: State its viability at 100 µM for this compound: COc1ccc(/C=N/N=C(\C)c2cc3ccccc3o2)cc1OC [Compound 9]
Response: 47.9
